system_tested: UniProt Q72547
IC50 vs 10 µM: less than gives met; not less than gives not met.

Here are 2 molecules together with their reported answers.
* CC(=O)NC1=CC(=O)c2ccc(-c3[nH]c(C(N)=O)cc4c5ccccc5nc3-4)nc2C1=O | not met
* CC(=O)NC1=CC(=O)c2ccc(-c3[nH]c(C(=O)O)cc4c5ccccc5nc3-4)nc2C1=O | not met

Q) Please check: IC50 for CCCCOC(=O)c1cc2c([nH]c3ccccc32)c(-c2ccc3c(n2)C(=O)C(NC(=O)CCC)=CC3=O)n1 , strictly under 10 µM or not?
A) met

Q) Please check: IC50 for CC(=O)NC1=CC(=O)c2ccc(-c3[nH]c(C(=O)OCCOP(=O)(O)O)cc4c5ccccc5nc3-4)nc2C1=O , strictly under 10 µM or not?
A) met

Q) Please check: IC50 for COC(=O)c1[nH]c(-c2ccc3c(n2)C(=O)C(NC(C)=O)=CC3=O)c2nc3ccccc3c-2c1C , strictly under 10 µM or not?
A) not met

---

Species on record: Mus musculus
test_summary: Cellular cytotoxicity in normal mouse spleen stimulated with concanavalin A
Assay type: functional
CC50 vs 60 µM: less than gives Met; not less than gives Not met.

Here are 3 compounds together with their reported answers.
- CC(=O)NC1=CC(=O)c2ccc(-c3[nH]c(C(=O)OCCOP(=O)(O)O)cc4c5ccccc5nc3-4)nc2C1=O: Met
- CCCCOC(=O)c1cc2c([nH]c3ccccc32)c(-c2ccc3c(n2)C(=O)C(NC(=O)CCC)=CC3=O)n1: Not met
- COC(=O)c1[nH]c(-c2ccc3c(n2)C(=O)C(NC(C)=O)=CC3=O)c2nc3ccccc3c-2c1C: Not met

Q) Please check: CC50 for CC(=O)NC1=CC(=O)c2ccc(-c3[nH]c(C(N)=O)cc4c5ccccc5nc3-4)nc2C1=O , strictly under 60 µM or not?
A) Met

Q) Please check: CC50 for CC(=O)NC1=CC(=O)c2ccc(-c3[nH]c(C(=O)O)cc4c5ccccc5nc3-4)nc2C1=O , strictly under 60 µM or not?
A) Met
